B1: VTI1B (parent)
chain: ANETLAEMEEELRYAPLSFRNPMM

Variants of: B1
Test: protein stability index of a GFP-peptide fusion (GPS, HEK-293T) (PSI 1-6); higher = more stable;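 note: lentivirally expressed fusions sorted by FACS into six bins by GFP to DsRed ratio, PSI derived from sequencing read proportions per bin multiplied by bin number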
Conditions: c terminus: a fixed tail appended
Kind request: treat 2 as inclusive, so protein stability index at 2 or higher is Condition met, anything lower is Condition not met.

For orientation, consider the following solved cases.
E3S	Condition met
S18D	Condition met
M23S	Condition met

Now for a further variant.
Exercise: For this variant, is measured protein stability index 2 or higher? A1V
Key: Condition not met

Cited source: the supplement of paper PMC10567573
